B1: library; a variant is named by its letters at N, in order (parent)
chain: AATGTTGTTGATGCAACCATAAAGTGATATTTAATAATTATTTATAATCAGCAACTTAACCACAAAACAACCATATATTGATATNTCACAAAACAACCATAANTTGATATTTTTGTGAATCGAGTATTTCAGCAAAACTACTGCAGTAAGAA

variants of: B1; assay: relative integration efficiency (T-RL orientation) vs wild-type transposon end (log2 (normalized fold change)); transposon end mutated: left end; higher = more efficient transposition; conditions: with VchCAST RNA-guided transposition machinery (E. coli BL21(DE3) host, lacZ target)
The following variants are listed with their measured relative integration efficiency (log2) values.
// print number alone

Problem: Can you share its relative integration efficiency (log2)? I mean this variant: CG T3A G4C T5A T6A
Solution: -6.84

Problem: Can you share its relative integration efficiency (log2)? I mean this variant: CG A36G A65G A66C
Solution: -0.491

Problem: Can you share its relative integration efficiency (log2)? I mean this variant: TA G24A T30A A70C T76A T84A C87A A96C T112G T113C
Solution: 0.326

Problem: Can you share its relative integration efficiency (log2)? I mean this variant: CG G24T
Solution: 0.72

***
Problem: Can you share its relative integration efficiency (log2)? I mean this variant: TA A22T G24T T31C A33C T76A T78A T84A C87A A96C T112G T113C
Solution: -0.261

Problem: Can you share its relative integration efficiency (log2)? I mean this variant: CG T28C
Solution: -0.273

Problem: Can you share its relative integration efficiency (log2)? I mean this variant: CG A91T
Solution: -0.101

Problem: Can you share its relative integration efficiency (log2)? I mean this variant: TA A23G G24T A33T T76A T78G C87A A96C T110A T113A
Solution: 0.884

Problem: Can you share its relative integration efficiency (log2)? I mean this variant: CG G106C A107T T108A A109T
Solution: -1.36

Problem: Can you share its relative integration efficiency (log2)? I mean this variant: CG A16C C17A
Solution: -0.728

Problem: Can you share its relative integration efficiency (log2)? I mean this variant: CG T76A
Solution: 0.0494

Problem: Can you share its relative integration efficiency (log2)? I mean this variant: CG T32C
Solution: -0.0923

Problem: Can you share its relative integration efficiency (log2)? I mean this variant: CG C98G A99T T100A A101T
Solution: -2

Problem: Can you share its relative integration efficiency (log2)? I mean this variant: CG A81T T82A
Solution: -1.03

Problem: Can you share its relative integration efficiency (log2)? I mean this variant: CA A16C G24T T30A A96C T112G T113C
Solution: -0.628

Problem: Can you share its relative integration efficiency (log2)? I mean this variant: CT
Solution: -0.0852

Problem: Can you share its relative integration efficiency (log2)? I mean this variant: TA T76A A77G C87T A96C T110A T113A
Solution: -0.522

Problem: Can you share its relative integration efficiency (log2)? I mean this variant: TA A23G G24T A33T A70C T76A T84A C87A T104G T113A
Solution: -0.158

Problem: Can you share its relative integration efficiency (log2)? I mean this variant: CA A22T G24T T31C A33C A96C T110A T113A
Solution: -0.802

Problem: Can you share its relative integration efficiency (log2)? I mean this variant: CG G10T
Solution: -0.454

Problem: Can you share its relative integration efficiency (log2)? I mean this variant: CG A62C C63A
Solution: 0.182

Problem: Can you share its relative integration efficiency (log2)? I mean this variant: CG A23C G24T
Solution: -0.106
